assay: Solubility in phosphate buffer at pH 7.4
Type: physicochemical
quantity-measured: solubility (µM)

>>> value("C=CCO/N=C(/N)c1ccc2[nH]c(-c3cccc(-c4ccccc4O)c3O)cc2c1")
24
>>> value("N/C(=N/O)c1ccc2[nH]c(-c3cccc(-c4ccccc4O)c3O)cc2c1")
380
>>> value("N=C(N)c1ccc2[nH]c(-c3cccc(-c4cc(F)ccc4O)c3O)cc2c1")
83
>>> value("CC(C)ONC(=N)c1ccc2[nH]c(-c3cccc(-c4ccccc4O)c3O)cc2c1")
25

---

// Fa lookup, one value per entry
assay: Oral absorption in Sprague-Dawley rats
Type: ADME, organism-based
run-conditions: rat, in vivo
quantity-measured: Fa (%)

>>> value("C=CCO/N=C(/N)c1ccc2[nH]c(-c3cccc(-c4ccccc4O)c3O)cc2c1")
100
>>> value("Oc1ccccc1-c1cccc(-c2nc3ccccc3[nH]2)c1O")
100
>>> value("CC(C)(C)ONC(=N)c1ccc2[nH]c(-c3cccc(-c4ccccc4O)c3O)cc2c1")
60
>>> value("CCONC(=N)c1ccc2[nH]c(-c3cccc(-c4ccccc4O)c3O)cc2c1")
53
>>> value("N/C(=N/C(=O)OCC(Cl)(Cl)Cl)c1ccc2[nH]c(-c3cccc(-c4ccccc4O)c3O)cc2c1")
21
>>> value("N/C(=N/O)c1ccc2[nH]c(-c3cccc(-c4ccccc4O)c3O)cc2c1")
39
>>> value("CC(C)ONC(=N)c1ccc2[nH]c(-c3cccc(-c4ccccc4O)c3O)cc2c1")
54
>>> value("CC(C)OC(=O)NC(=N)c1ccc2[nH]c(-c3cccc(-c4ccccc4O)c3O)cc2c1")
53

---

Organism: Homo sapiens
assay: Stability in human plasma at 10 uM after 2 hrs
// remaining at 2 h, 10 µM lookup, one value per entry
quantity-measured: remaining at 2 h, 10 µM (%)

>>> value("N/C(=N/O)c1ccc2[nH]c(-c3cccc(-c4ccccc4O)c3O)cc2c1")
97
>>> value("CCONC(=N)c1ccc2[nH]c(-c3cccc(-c4ccccc4O)c3O)cc2c1")
100
>>> value("N=C(N)c1ccc2[nH]c(-c3cccc(-c4cc(F)ccc4O)c3O)cc2c1")
100
>>> value("CC(C)(C)ONC(=N)c1ccc2[nH]c(-c3cccc(-c4ccccc4O)c3O)cc2c1")
100
>>> value("CC(C)ONC(=N)c1ccc2[nH]c(-c3cccc(-c4ccccc4O)c3O)cc2c1")
100
>>> value("N/C(=N/C(=O)OCC(Cl)(Cl)Cl)c1ccc2[nH]c(-c3cccc(-c4ccccc4O)c3O)cc2c1")
100
>>> value("C=CCO/N=C(/N)c1ccc2[nH]c(-c3cccc(-c4ccccc4O)c3O)cc2c1")
100
>>> value("CCOC(=O)NC(=N)c1ccc2[nH]c(-c3cccc(-c4ccccc4O)c3O)cc2c1")
100
>>> value("CC(=O)OC(C)OC(=O)NC(=N)c1ccc2[nH]c(-c3cccc(-c4ccccc4O)c3O)cc2c1 (stereo not given)")
96
>>> value("CC(C)OC(=O)NC(=N)c1ccc2[nH]c(-c3cccc(-c4ccccc4O)c3O)cc2c1")
100

---

assay: Oral bioavailability in Sprague-Dawley rats
Format: ADME, organism-based
run-conditions: rat, in vivo
// bioavailability lookup, one value per entry
quantity-measured: bioavailability (%)

>>> value("N/C(=N/C(=O)OCC(Cl)(Cl)Cl)c1ccc2[nH]c(-c3cccc(-c4ccccc4O)c3O)cc2c1")
14
>>> value("CC(C)(C)ONC(=N)c1ccc2[nH]c(-c3cccc(-c4ccccc4O)c3O)cc2c1")
38
>>> value("CCONC(=N)c1ccc2[nH]c(-c3cccc(-c4ccccc4O)c3O)cc2c1")
67
>>> value("N/C(=N/O)c1ccc2[nH]c(-c3cccc(-c4ccccc4O)c3O)cc2c1")
15

---

assay: Stability in rat plasma at 10 uM after 2 hrs
Format: ADME, cell-free
run-conditions: read-out: Stability
quantity-measured: remaining at 2 h, 10 µM (%)

>>> value("C=CCO/N=C(/N)c1ccc2[nH]c(-c3cccc(-c4ccccc4O)c3O)cc2c1")
94
>>> value("CC(=O)OC(C)OC(=O)NC(=N)c1ccc2[nH]c(-c3cccc(-c4ccccc4O)c3O)cc2c1 (stereo not given)")
37
>>> value("N/C(=N/C(=O)OCC(Cl)(Cl)Cl)c1ccc2[nH]c(-c3cccc(-c4ccccc4O)c3O)cc2c1")
89
>>> value("N=C(N)c1ccc2[nH]c(-c3cccc(-c4cc(F)ccc4O)c3O)cc2c1")
100
>>> value("N/C(=N/O)c1ccc2[nH]c(-c3cccc(-c4ccccc4O)c3O)cc2c1")
94
>>> value("CCONC(=N)c1ccc2[nH]c(-c3cccc(-c4ccccc4O)c3O)cc2c1")
100
>>> value("CC(C)(C)ONC(=N)c1ccc2[nH]c(-c3cccc(-c4ccccc4O)c3O)cc2c1")
99
>>> value("CCOC(=O)NC(=N)c1ccc2[nH]c(-c3cccc(-c4ccccc4O)c3O)cc2c1")
95
>>> value("CC(C)ONC(=N)c1ccc2[nH]c(-c3cccc(-c4ccccc4O)c3O)cc2c1")
100
>>> value("CC(C)OC(=O)NC(=N)c1ccc2[nH]c(-c3cccc(-c4ccccc4O)c3O)cc2c1")
100

---

assay: Oral bioavailability in Sprague-Dawley rats
Type: ADME, organism-based
run-conditions: rat, in vivo
quantity-measured: bioavailability (%)

>>> value("C=CCO/N=C(/N)c1ccc2[nH]c(-c3cccc(-c4ccccc4O)c3O)cc2c1")
100
>>> value("CC(C)ONC(=N)c1ccc2[nH]c(-c3cccc(-c4ccccc4O)c3O)cc2c1")
10
>>> value("CC(C)OC(=O)NC(=N)c1ccc2[nH]c(-c3cccc(-c4ccccc4O)c3O)cc2c1")
23
>>> value("Oc1ccccc1-c1cccc(-c2nc3ccccc3[nH]2)c1O")
16

---

assay: Stability in rat liver microsome at 2 uM after 1 hr
Type: ADME
run-conditions: liver microsomes, read-out: Stability
quantity-measured: remaining at 1 h, 2 µM (%)

>>> value("CC(=O)OC(C)OC(=O)NC(=N)c1ccc2[nH]c(-c3cccc(-c4ccccc4O)c3O)cc2c1 (stereo not given)")
12
>>> value("CC(C)(C)ONC(=N)c1ccc2[nH]c(-c3cccc(-c4ccccc4O)c3O)cc2c1")
78
>>> value("CC(C)OC(=O)NC(=N)c1ccc2[nH]c(-c3cccc(-c4ccccc4O)c3O)cc2c1")
49
>>> value("CCOC(=O)NC(=N)c1ccc2[nH]c(-c3cccc(-c4ccccc4O)c3O)cc2c1")
53
>>> value("CCONC(=N)c1ccc2[nH]c(-c3cccc(-c4ccccc4O)c3O)cc2c1")
70
